- Target: NMDA receptor complex, glycine co-agonist site (Rattus norvegicus, UniProt P35439)
- Construct: Crude synaptic membranes used in the assay were prepared using rat hippocampal tissue; from tissue; host or cells: rat hippocampus, crude synaptic membranes
- Format: biochemical
- Experimental parameters: 10^-5 M peptide; rat hippocampus membranes; in the presence of 7-chlorokynurenic acid; ± S.E.M.
No end group written: not given here.
Outcome measure: [3H]MK-801 binding, percentage of control binding (%)
Report only the number, with the unit % understood.

Lab note: NMDA receptor complex, glycine co-agonist site (Rattus norvegicus, UniProt P35439) assay, enter [3H]MK-801 binding, percentage of control binding for QQHYSTPPTFGGG [NT-8] here
115

Would you please give the reported [3H]MK-801 binding, percentage of control binding of VYYSQQHYSTPPT [NT-4] with NMDA receptor complex, glycine co-agonist site (Rattus norvegicus, UniProt P35439)?
109

Supply [3H]MK-801 binding, percentage of control binding measured with NMDA receptor complex, glycine co-agonist site (Rattus norvegicus, UniProt P35439) for QQHYSTPPT [NT-3] .
90

Name the value of [3H]MK-801 binding, percentage of control binding reported for QQHYSTPPTFGGGTKLE [NT-9] when tested on NMDA receptor complex, glycine co-agonist site (Rattus norvegicus, UniProt P35439).
120

Give measured [3H]MK-801 binding, percentage of control binding for SVQAELDLAVYYSQQHYSTPPT [NT-6] (NMDA receptor complex, glycine co-agonist site (Rattus norvegicus, UniProt P35439)).
91

Give the observed [3H]MK-801 binding, percentage of control binding of SQQHYSTPPTS [NT-11] for NMDA receptor complex, glycine co-agonist site (Rattus norvegicus, UniProt P35439).
127

* * *

- Target: NMDA receptor complex, glycine co-agonist site (Rattus norvegicus, UniProt P35439)
- Construct: Crude synaptic membranes used in the assay were prepared using rat hippocampal tissue; from tissue; host or cells: rat hippocampus, crude synaptic membranes
- Type: biochemical
- Experimental parameters: 10^-5 M peptide; rat hippocampus membranes; in the presence of 7-chlorokynurenic acid; ± S.E.M.
- Description: Polypeptides or amino acid compositions of the instant invention were tested for the ability to mimic the glycine co-agonist effect on the NMDA receptor using a previously validated [^3 H]MK-801 binding assay. […] Frozen pellets are thawed at room temperature and washed three times by resuspension in 5 mM Tris (pH 7.4) and centrifugation. […] Non-specific binding is determined using 10-- M unlabelled MK-801. […]
Positions of bridges follow the written chain, without caps; N, C: chain ends. Residues, ends and D or L forms follow the SMILES beside them.
Listing of entries alongside the reported [3H]MK-801 binding, percentage of control binding.
Respond numerically; units are % and should not be typed.

For the molecule C[C@@H](O)[C@H](N)C(=O)N1CCC[C@H]1C(=O)N1CCC[C@H]1C(=O)O [NT-14, Thr-Pro-Pro] (H-Thr-Pro-Pro-OH) , report [3H]MK-801 binding, percentage of control binding.
95

State its [3H]MK-801 binding, percentage of control binding: C[C@@H](O)[C@@H]1NC(=O)[C@@H]2CCCN2C(=O)[C@@H]2CCCN2C(=O)[C@H]([C@@H](C)O)NC(=O)[C@H](CO)NC(=O)[C@H](Cc2ccc(O)cc2)NC(=O)[C@H](Cc2c[nH]cn2)NC(=O)[C@H](CCC(N)=O)NC(=O)[C@H](CCC(N)=O)NC(=O)[C@@H](N)CSSC[C@@H](C(=O)O)NC1=O [NT-10] (H-CQQHYSTPPTC-OH; disulfide 1-11)
116

# return recorded [3H]MK-801 binding, percentage of control binding for entry C[C@@H](O)[C@H](NC(=O)[C@@H]1CCCN1C(=O)[C@@H]1CCCN1)C(=O)O [NT-15, Pro-Pro-Thr] (H-Pro-Pro-Thr-OH)
93

Determine from records and report [3H]MK-801 binding, percentage of control binding for C[C@@H](O)[C@H](N)C(=O)N1CCC[C@H]1C(=O)N[C@H](C(=O)O)[C@@H](C)O [NT-17, Thr-Pro-Thr] (H-Thr-Pro-Thr-OH)
119

Identify the reported [3H]MK-801 binding, percentage of control binding for the following entry. O=C(O)[C@@H]1CCCN1C(=O)[C@@H]1CCCN1 [NT-16, Pro-Pro] (H-Pro-Pro-OH)
117

Complete the entry with [3H]MK-801 binding, percentage of control binding for C[C@@H](O)[C@H](N)C(=O)N1CCC[C@H]1C(=O)N1CCC[C@H]1C(=O)N[C@H](C(=O)O)[C@@H](C)O [NT-13, Thr-Pro-Pro-Thr] (H-TPPT-OH)
117

* * *

[3H]MK-801 binding, percentage of control binding reference
- Target: NMDA receptor complex, glycine co-agonist site (Rattus norvegicus)
- Construct: Crude synaptic membranes used in the assay were prepared using rat hippocampal tissue; from tissue; host or cells: rat hippocampus, crude synaptic membranes
- Assay type: biochemical
- Experimental parameters: 10^-6 M peptide; rat hippocampus membranes; in the presence of 7-chlorokynurenic acid; ± S.E.M.
Residues, ends and D or L forms follow the SMILES beside them.
Give the number; % is assumed, so skip it.

C[C@@H](O)[C@H](N)C(=O)N1CCC[C@H]1C(=O)N1CCC[C@H]1C(=O)N[C@H](C(=O)O)[C@@H](C)O [NT-13, Thr-Pro-Pro-Thr] (H-TPPT-OH): 129
C[C@@H](O)[C@H](N)C(=O)N1CCC[C@H]1C(=O)N1CCC[C@H]1C(=O)O [NT-14, Thr-Pro-Pro] (H-Thr-Pro-Pro-OH): 98
O=C(O)[C@@H]1CCCN1C(=O)[C@@H]1CCCN1 [NT-16, Pro-Pro] (H-Pro-Pro-OH): 103

# context switch: different molecule, same [3H]MK-801 binding, percentage of control binding
State, in one line, measured [3H]MK-801 binding, percentage of control binding of C[C@@H](O)[C@H](NC(=O)[C@@H]1CCCN1C(=O)[C@@H]1CCCN1)C(=O)O [NT-15, Pro-Pro-Thr] (H-Pro-Pro-Thr-OH)
108

* * *

- Target: NMDA receptor complex, glycine co-agonist site (Rattus norvegicus, UniProt P35439)
- Construct: Crude synaptic membranes used in the assay were prepared using rat hippocampal tissue; from tissue; host or cells: rat hippocampus, crude synaptic membranes
- Type: biochemical
- Experimental parameters: 10^-8 M peptide; rat hippocampus membranes; in the presence of 7-chlorokynurenic acid; ± S.E.M.
Positions of bridges follow the written chain, without caps; N, C: chain ends. Residues, ends and D or L forms follow the SMILES beside them.
// [3H]MK-801 binding, percentage of control binding lookup, one value per entry
Quick reminder: number only, in %, skip the unit.

Some compounds with recorded [3H]MK-801 binding, percentage of control binding:
C[C@@H](O)[C@H](N)C(=O)N1CCC[C@H]1C(=O)N1CCC[C@H]1C(=O)N[C@H](C(=O)O)[C@@H](C)O [NT-13, Thr-Pro-Pro-Thr] (H-TPPT-OH): 103
C[C@@H](O)[C@H](NC(=O)[C@@H]1CCCN1C(=O)[C@@H]1CCCN1)C(=O)O [NT-15, Pro-Pro-Thr] (H-Pro-Pro-Thr-OH): 103
C[C@@H](O)[C@@H]1NC(=O)[C@@H]2CCCN2C(=O)[C@@H]2CCCN2C(=O)[C@H]([C@@H](C)O)NC(=O)[C@H](CO)NC(=O)[C@H](Cc2ccc(O)cc2)NC(=O)[C@H](Cc2c[nH]cn2)NC(=O)[C@H](CCC(N)=O)NC(=O)[C@H](CCC(N)=O)NC(=O)[C@@H](N)CSSC[C@@H](C(=O)O)NC1=O [NT-10] (H-CQQHYSTPPTC-OH; disulfide 1-11): 90

Output measured [3H]MK-801 binding, percentage of control binding for this item: C[C@@H](O)[C@H](N)C(=O)N1CCC[C@H]1C(=O)N[C@H](C(=O)O)[C@@H](C)O [NT-17, Thr-Pro-Thr] (H-Thr-Pro-Thr-OH)
125

Entry O=C(O)[C@@H]1CCCN1C(=O)[C@@H]1CCCN1 [NT-16, Pro-Pro] (H-Pro-Pro-OH) needs its [3H]MK-801 binding, percentage of control binding filled in; supply it.
89

Please list [3H]MK-801 binding, percentage of control binding recorded for the compound C[C@@H](O)[C@H](N)C(=O)N1CCC[C@H]1C(=O)N1CCC[C@H]1C(=O)O [NT-14, Thr-Pro-Pro] (H-Thr-Pro-Pro-OH)
101

* * *

[3H]MK-801 binding, percentage of control binding by entry:
- Target: NMDA receptor complex, glycine co-agonist site (Rattus norvegicus)
- Construct: Crude synaptic membranes used in the assay were prepared using rat hippocampal tissue; from tissue; host or cells: rat hippocampus, crude synaptic membranes
- Assay type: biochemical
- Experimental parameters: 10^-7 M peptide; rat hippocampus membranes; in the presence of 7-chlorokynurenic acid; ± S.E.M.
Positions of bridges follow the written chain, without caps; N, C: chain ends. Residues, ends and D or L forms follow the SMILES beside them.
Quick note: give the figure in %, leave out the unit.

State [3H]MK-801 binding, percentage of control binding on NMDA receptor complex, glycine co-agonist site (Rattus norvegicus). Entry: C[C@@H](O)[C@H](N)C(=O)N1CCC[C@H]1C(=O)N1CCC[C@H]1C(=O)N[C@H](C(=O)O)[C@@H](C)O [NT-13, Thr-Pro-Pro-Thr] (H-TPPT-OH)
110

Under NMDA receptor complex, glycine co-agonist site (Rattus norvegicus), report [3H]MK-801 binding, percentage of control binding for C[C@@H](O)[C@H](NC(=O)[C@@H]1CCCN1C(=O)[C@@H]1CCCN1)C(=O)O [NT-15, Pro-Pro-Thr] (H-Pro-Pro-Thr-OH)
100

Give measured [3H]MK-801 binding, percentage of control binding for O=C(O)[C@@H]1CCCN1C(=O)[C@@H]1CCCN1 [NT-16, Pro-Pro] (H-Pro-Pro-OH) (NMDA receptor complex, glycine co-agonist site (Rattus norvegicus)).
97

Give [3H]MK-801 binding, percentage of control binding; test system NMDA receptor complex, glycine co-agonist site (Rattus norvegicus); compound C[C@@H](O)[C@H](N)C(=O)N1CCC[C@H]1C(=O)N1CCC[C@H]1C(=O)O [NT-14, Thr-Pro-Pro] (H-Thr-Pro-Pro-OH)
96

Provide [3H]MK-801 binding, percentage of control binding, system NMDA receptor complex, glycine co-agonist site (Rattus norvegicus), entry C[C@@H](O)[C@@H]1NC(=O)[C@@H]2CCCN2C(=O)[C@@H]2CCCN2C(=O)[C@H]([C@@H](C)O)NC(=O)[C@H](CO)NC(=O)[C@H](Cc2ccc(O)cc2)NC(=O)[C@H](Cc2c[nH]cn2)NC(=O)[C@H](CCC(N)=O)NC(=O)[C@H](CCC(N)=O)NC(=O)[C@@H](N)CSSC[C@@H](C(=O)O)NC1=O [NT-10] (H-CQQHYSTPPTC-OH; disulfide 1-11)
114

Output reported [3H]MK-801 binding, percentage of control binding of the compound C[C@@H](O)[C@H](N)C(=O)N1CCC[C@H]1C(=O)N[C@H](C(=O)O)[C@@H](C)O [NT-17, Thr-Pro-Thr] (H-Thr-Pro-Thr-OH) on NMDA receptor complex, glycine co-agonist site (Rattus norvegicus).
128
